Source listed as patent US20250206841A1.

- SYSTEM_UNDER_TEST: T1, cynomolgus Trop-2-His protein (cynomolgus, UniProt P09758 27-274 (human entry))
- T1 construct: also called cynmolgus Trop-His; Kactus Cat #TRP-CM121; not shown: His tag
- T1 chain: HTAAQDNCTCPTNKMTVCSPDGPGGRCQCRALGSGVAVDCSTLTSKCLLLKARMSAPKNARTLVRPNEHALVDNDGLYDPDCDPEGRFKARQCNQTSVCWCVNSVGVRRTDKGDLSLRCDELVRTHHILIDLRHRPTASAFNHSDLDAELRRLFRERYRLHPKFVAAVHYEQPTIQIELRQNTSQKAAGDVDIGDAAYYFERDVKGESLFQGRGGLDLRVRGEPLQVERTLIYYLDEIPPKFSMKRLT
- MEASUREMENT_NOTES: BLI (Gator Prime), LEM supernatant Ab on HFC probe

[
  {
    "BINDER": "70E2 (antibody, V domains shown, Rabbit-derived clone; LEM construct: VH + rabbit IgG CH1 + human IgG1 CH2-CH3) VH: QSLEESGGGLVKPGGTLTLTCTVSGFDFSNYAMTWVRQAPGKGLEYIGFIGIRGNIYYANWAKGRFTISKTSSTTVTLQMTSLTVADTATYFCARGGLWTGNSYFDLWGPGTLVTVSS VL: YDMTQTPASVEVPVGGTVTINCQASENINRYLAWYQQKPGQPPKPLIYRAATLASGVPSRFKGSGSGTEYTLSISDLECADAATYYCQQGYGYSTVGNAFGGGTEVVVK",
    "UOM": "s⁻¹",
    "koff": 0.00059
  },
  {
    "BINDER": "5D4 (antibody, V domains shown, Rabbit-derived clone; LEM construct: VH + rabbit IgG CH1 + human IgG1 CH2-CH3) VH: QQLEESGGGLVKPEGSLTLTCKGSGFDFSGTYWMWWVRQAPGKGLEWIACIYVGSGSSTYYASWAKGRFTISSTSSTAVTLQATSLTAADTATYFCARGATNNVFMNYFNLWGPGTLVTVSS VL: FEMTQTPSSVSEPVGGTVTIKCQASEDISSNLGWYQQKPGQPPKLLIYGASTLASGVPSRFKGSGSGTEFTLTISDLECADAATYYCQTSYYIDDGVNGFGGGTEVVVK",
    "UOM": "s⁻¹",
    "koff": 0.0001
  },
  {
    "BINDER": "71F10 (antibody, V domains shown, Rabbit-derived clone; LEM construct: VH + rabbit IgG CH1 + human IgG1 CH2-CH3) VH: QSLEESGGGLVQPGASLTLTCTVSGFDFSSNAMTWVRQAPGEGLEYIGFIGIRGNIYYANWAKGRFTISKTSSTTVTLQMTSLTVADTATYFCARGGLWTGNSYFDLWGPGTLVTVSS VL: YDMTQTPASVSAAVGGTVTINCQASESISRYLAWYQQKPGQPPKPLIYRASTLASGVPSRFKGSGTGTDYTLTISDLECADAATYYCQQGYGYSTVGNAFGGGTEVVVK",
    "UOM": "s⁻¹",
    "koff": 0.00054
  },
  {
    "BINDER": "8H2 (antibody, V domains shown, Rabbit-derived clone; LEM construct: VH + rabbit IgG CH1 + human IgG1 CH2-CH3) VH: QSLEESGGDLVQPGASLTLTCKASGFDLNNYAMLWVRQAPGKGLEWIGCIYISGGTTYFASWATGRFAISKTSSTTVTLQMTSLTAADTATYFCARDDGSTSYYLNLWGPGTLVTVSS VL: YDMTQTPASVSAAVGGTVTIKCQASEDIYSLLAWYQQKPGQPPKLLIYDASDLASGVPSRFKGSGSGTEYTLTISALECDDAATYYCQQAYTIGNIDNTFGGGTEVVVK",
    "UOM": "s⁻¹",
    "koff": "9.6e-05"
  },
  {
    "BINDER": "63H3 (antibody, V domains shown, Rabbit-derived clone; LEM construct: VH + rabbit IgG CH1 + human IgG1 CH2-CH3) VH: QEQLKESGGGLVQPGGSLKLSCKASGFDFNSYGVSWVRQAPGKGLEWIAYIYPAFHNAYYANWVNGRFTISSDNAQNTVDLQLNSLTAADTATYFCARDAGGTDYNYNLWGPGTLVTVSS VL: DVVMTQTPASVEVAVGGTVTLKCQASEDIESYSAWYQQKPGQPPNLLIYEASKLASGVSSRFSGSGYGTEFTLTISGVECADAATYYCQQALTIGNVDNPFGGGSEVVVR",
    "UOM": "s⁻¹",
    "koff": 0.00016
  }
]
